Experiment: Oral bioavailability in dog at 100 mg/kg
Assay type: ADME, organism-based, Canis lupus familiaris
Details: in vivo
PROPERTY: bioavailability

INSERT INTO assay_data (smiles_text, property, reading) VALUES
  ('C/C1=C\CC[C@@]2(C)O[C@@H]2[C@H]2OC(=O)[C@@H](CN(C)C)[C@@H]2CC1', 'bioavailability', '70%');

----------
Assay: Half life in mouse at 100 mg/kg, po
Assay type: ADME, organism-based
Set-up: dose 100 mg/kg, route oral
Conditions: in vivo
PROPERTY: half-life (min)

INSERT INTO assay_data (smiles_text, reading) VALUES
  ('C/C1=C\CC[C@@]2(C)O[C@@H]2[C@H]2OC(=O)[C@@H](CN(C)C)[C@@H]2CC1', 37.8);
